- assay-details: total protein half-life in vivo (active degradation + dilution); higher = more stable protein
- condition-description: E. coli NCM3722 delta-smpB; growth: N-lim chemostat; doubling time 6 h
total protein half-life in vivo listing for selected sequences.
attribute-measured: total protein half-life in vivo

• MDMHSGTFNPQDFAWQGLTLTPAAAIHIRELVAKQPGMVGVRLGVKQTGCAGFGYVLDSVSEPDKDDLLFEHDGAKLFVPLQAMPFIDGTEVDFVREGLNQIFKFHNPKAQNECGCGESFGV = 2.14 h
• MELIFLGTSAGVPTRTRNVTAILLNLQHPTQSGLWLFDCGEGTQHQLLHTAFNPGKLDKIFISHLHGDHLFGLPGLLCSRSMSGIIQPLTIYGPQGIREFVETALRISGSWTDYPLEIVEIGAGEILDDGLRKVTAYPLEHPLECYGYRIEEHDKPGALNAQALKAAGVPPGPLFQELKAGKTITLEDGRQINGADYLAAPVPGKALAIFGDTGPCDAALDLAKGVDVMVHEATLDITMEAKANSRGHSSTRQAATLAREAGVGKLIITHVSSRYDDKGCQHLLRECRSIFPATELANDFTVFNV [P0A8V0] = 3.92 h
• MKLVGSYTSPFVRKLSILLLEKGITFEFINELPYNADNGVAQFNPLGKVPVLVTEEGECWFDSPIIAEYIELMNVAPAMLPRDPLESLRVRKIEALADGIMDAGLVSVREQARPAAQQSEDELLRQREKINRSLDVLEGYLVDGTLKTDTVNLATIAIACAVGYLNFRRVAPGWCVDRPHLVKLVENLFSRESFARTEPPKA [P0ACA1] = 4.22 h

Provenance of the data: the supplement of paper PMC11246515
